Entry source: the RNAGym collection of RNA variant scans (doi:10.1073/pnas.2313332121)

B1: TPR 5TU (parent)
chain: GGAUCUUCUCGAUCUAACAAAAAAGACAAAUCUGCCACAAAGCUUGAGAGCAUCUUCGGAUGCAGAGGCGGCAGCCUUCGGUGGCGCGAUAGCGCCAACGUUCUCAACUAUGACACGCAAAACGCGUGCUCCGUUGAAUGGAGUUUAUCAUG

- Variants of: B1
- method notes: polymerase ribozyme fitness, log enrichment relative to wild type (log ratio); higher = more active; in vitro selection for triplet polymerase activity
Variants at the floor of the assay were thinned out.
Catalogue of polymerase ribozyme fitness (log ratio) values

Reference set (2 entries):
U55A A66C U77A C87A	≤ -4.2
A26C A41C A49C G62C A138G	≤ -4.2

Request: Request the reported polymerase ribozyme fitness (log ratio) associated with U33G U55A G70A G80C
Result: ≤ -4.2

Request: Request the reported polymerase ribozyme fitness (log ratio) associated with A21U C85U C131U U145G U151A
Result: ≤ -4.2

Request: Request the reported polymerase ribozyme fitness (log ratio) associated with G71U A91U A122G G143U U145C
Result: ≤ -4.2

Request: Request the reported polymerase ribozyme fitness (log ratio) associated with A39C C63A A64U G84A C93G C116G
Result: ≤ -4.2
